Data origin: the supplement of paper PMC4466140

- System tested: ScLsb3
- Measurement notes: SPOT peptide array binding signal intensity (averaged, normalized) (arbitrary units (background-subtracted, floor 0; scale differs between SH3 domains)); higher = stronger binding of the SH3 domain to the peptide
Assay metric: SPOT peptide array binding signal intensity
# output: bare number, no unit

Name the recorded SPOT peptide array binding signal intensity for `RSRRSSFAYPQQVAI` .
59

Name the recorded SPOT peptide array binding signal intensity for `RPVPRRPSQPLNTLS` .
5960

Name the recorded SPOT peptide array binding signal intensity for `AAHKTKPSIPPKKVE` .
144

Name the recorded SPOT peptide array binding signal intensity for `RFKRHRLEFPFNESE` .
80

Name the recorded SPOT peptide array binding signal intensity for `LKQRFFLMFPKSIIW` .
33

Name the recorded SPOT peptide array binding signal intensity for `LEFRAILFIPKRAPF` .
164

Name the recorded SPOT peptide array binding signal intensity for `IPSRPAPKPPSSASA` .
197

Name the recorded SPOT peptide array binding signal intensity for `PSRRAPLQLPQLVNK` .
86

Name the recorded SPOT peptide array binding signal intensity for `PPLPRAPPVPPATFE` .
84

Name the recorded SPOT peptide array binding signal intensity for `VQPTAAPATPPRHIS` .
6740

Name the recorded SPOT peptide array binding signal intensity for `RRRIAYPFYPFKKLG` .
104
